# System: Male CF1 mice
# Test summary: Mouse antiphenylquinone writhing (PQW) test
# Assay type: in vivo
# Experimental conditions: Mus musculus, sc, 0.5 h; Table 3; s.c.; phenylquinone 1.25 mg/kg i.p.; observation beginning 30 min after injection of test compound; read-out: Mouse PQW ED₅₀ (Mg/Kg) S.C
# Method: The anti-pheylquinone writhing (PQW) test modified from the methods of Siegmund et al. (Proc. Soc. Exp. Biol. Med. 95: 729-731, 1957) and Blumberg et al. (Proc. Exp. Biol. Med. 118: 763-767, 1965) was used to assess analgesia in mice. […] Analgetic activity was calculated as the percentage of mice failing to respond to the phenylquinone challenge dose. […]
Value type: ED50 (mg/kg)

In [3]: df
Out[3]:
                                    compound  value_unit  comparative_sign  recorded_measurement
 0  CC(O)C1(c2cccs2)CCN(C)CC1 (centres unmarked)       mg/kg                 =                    13
 1  CC(OCc1ccccc1)C1(c2cccc(Cl)c2)CCN(C)CC1 (centres unmarked)       mg/kg                 =                    62
 2  CC(O)C1(c2ccc(F)c(F)c2)CCN(C)CC1 (centres unmarked)       mg/kg                 =                    38
 3  CC(O)C1(c2ccc(Br)cc2)CCN(C)CC1 (centres unmarked)       mg/kg                 >                    81
 4  CC(O)C1(c2ccsc2)CCN(C)CC1 (centres unmarked)       mg/kg                 =                    13
 5  CC(O)C1(c2cccc(Cl)c2)CCN(C)CC1 (centres unmarked)       mg/kg                 =                   8.1
 6              CN1CCC(c2cccs2)(C(C)(C)O)CC1       mg/kg                 =                    13
 7  CC(O)C1(c2ccc3ccccc3c2)CCN(C)CC1 (centres unmarked)       mg/kg                 =                    16
 8  CC(O)C1(c2ccccc2F)CCN(C)CC1 (centres unmarked)       mg/kg                 >                    81
 9         CN1CCC(c2cccc(Br)c2)(C(C)(C)O)CC1       mg/kg                 =                    19
10         CN1CCC(c2cccc(Cl)c2)(C(C)(C)O)CC1       mg/kg                 =                  16.1
11  CCCCC(O)C1(c2cccc(Cl)c2)CCN(C)CC1 (centres unmarked)       mg/kg                 =                    48
12  CC(O)C1(c2ccccc2)CCN(C)CC1 (centres unmarked)       mg/kg                 =                    19
13  CC(O)C1(c2ccc(C(F)(F)F)cc2)CCN(C)CC1 (centres unmarked)       mg/kg                 >                    81
14  CC(O)C1(c2cccc(C(F)(F)F)c2)CCN(C)CC1 (centres unmarked)       mg/kg                 =                    19
15  CCCN1CCC(c2cccc(Cl)c2)(C(C)O)CC1 (centres unmarked)       mg/kg                 =                    38
16  CN1CCC(c2ccccn2)(C(C)(C)O)CC1 [Example 46, reference compound]       mg/kg                 >                    81

---

# System: Male CF1 mice
# Test summary: Mouse antiphenylquinone writhing (PQW) test
# Assay type: in vivo
# Set-up: unit not given here
# Experimental conditions: Table 4; 3° carbinols within the scope of U.S. 4,485,109; p.o.; head prints neither endpoint nor unit
Reported Mouse PQW ED50 (mg/kg) by item:
Value type: Mouse PQW ED50 (mg/kg)

>>> print(df.to_string())
                                    compound              value_type  comparative_sign  recorded_measurement
 0          CN1CCC(c2cccc(F)c2)(C(C)(C)O)CC1  Mouse PQW ED50 (mg/kg)                 >                  81.0
 1       CN1CCC(c2ccc3ccccc3c2)(C(C)(C)O)CC1  Mouse PQW ED50 (mg/kg)                 =                  47.0
 2      COc1cccc(C2(C3(O)CCCCC3)CCN(C)CC2)c1  Mouse PQW ED50 (mg/kg)                 <                 108.0
 3       Cc1cc(C)cc(C2(C(C)(C)O)CCN(C)CC2)c1  Mouse PQW ED50 (mg/kg)                 =                  47.0
 4          CN1CCC(c2cccc(O)c2)(C(C)(C)O)CC1  Mouse PQW ED50 (mg/kg)                 >                  81.0
 5         COc1cccc(C2(C(C)(C)O)CCN(C)CC2)c1  Mouse PQW ED50 (mg/kg)                 =                  19.0
 6  CN1CCC(c2cccc(C(F)(F)F)c2)(C2(O)CCCC2)CC1  Mouse PQW ED50 (mg/kg)                 =                  12.0
 7  CCC(C)(O)C1(c2cccc(C(F)(F)F)c2)CCN(C)CC1 (stereo not shown)  Mouse PQW ED50 (mg/kg)                 =                  23.0
 8         CSc1ccc(C2(C(C)(C)O)CCN(C)CC2)cc1  Mouse PQW ED50 (mg/kg)                 =                  59.0
 9       COc1cccc(C2(C3(O)CCCC3)CCN(C)CC2)c1  Mouse PQW ED50 (mg/kg)                 =                  47.0
10  CC1CCC(O)(C2(c3cccc(C(F)(F)F)c3)CCN(C)CC2)C1 (stereo not shown)  Mouse PQW ED50 (mg/kg)                 =                  25.0
11       CCC(O)(CC)C1(c2cccc(OC)c2)CCN(C)CC1  Mouse PQW ED50 (mg/kg)                 =                  12.0
12           Cc1ccc(C2(C(C)(C)O)CCN(C)CC2)s1  Mouse PQW ED50 (mg/kg)                 =                  36.0
13        COc1cccc(C2(C3(O)CCC3)CCN(C)CC2)c1  Mouse PQW ED50 (mg/kg)                 >                  54.0
14        CCOc1cccc(C2(C(C)(C)O)CCN(C)CC2)c1  Mouse PQW ED50 (mg/kg)                 =                  32.0
15  CCC(C)(O)C1(c2cccc(OC)c2)CCN(C)CC1 (stereo not shown)  Mouse PQW ED50 (mg/kg)                 =                  68.0
